measured on: MAP kinase-interacting serine/threonine-protein kinase 1 (Homo sapiens) (UniProt Q9BUB5)
Sequence (Q9BUB5 whole entry, looked up): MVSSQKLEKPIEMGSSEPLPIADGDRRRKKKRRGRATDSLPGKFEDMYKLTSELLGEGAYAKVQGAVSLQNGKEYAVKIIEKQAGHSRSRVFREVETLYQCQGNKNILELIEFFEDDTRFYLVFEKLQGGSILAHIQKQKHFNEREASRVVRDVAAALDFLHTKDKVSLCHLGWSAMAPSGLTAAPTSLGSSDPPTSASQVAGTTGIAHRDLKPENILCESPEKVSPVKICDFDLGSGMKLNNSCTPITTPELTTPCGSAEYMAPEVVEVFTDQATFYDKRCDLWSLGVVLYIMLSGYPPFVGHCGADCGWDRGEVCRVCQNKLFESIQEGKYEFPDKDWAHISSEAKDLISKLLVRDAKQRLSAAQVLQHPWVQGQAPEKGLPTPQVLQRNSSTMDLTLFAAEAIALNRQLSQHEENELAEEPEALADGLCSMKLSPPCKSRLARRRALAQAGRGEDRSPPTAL
setup conditions: at 0.1 µM
Description: GSK_PKIS: MKNK1 mean inhibition at 0.1 uM [Nanosyn]
quantity: inhibition (%)
Numeric answer only, unit % assumed.

Solved cases below.
| compound | numeric readout |
| --- | --- |
| c1cnn2ncc(-c3ccnc(NCCCN4CCOCC4)n3)c2c1 | 4.1 |
| Cc1nnc(-c2cccc(-c3ccc(C(=O)NCC4CC4)cc3)c2)o1 | 4.66 |
| CS(=O)(=O)Nc1ccc(-c2ccc3c(NC(=O)C4CC4)n[nH]c3c2)cc1 | 2.36 |
| COc1cc(N2CCN(C(C)C)CC2)ccc1Nc1nc(Nc2cccc3ncccc23)c2cc[nH]c2n1 | 0.05 |
| CS(=O)(=O)CCNCc1ccc(-c2ccc3ncnc(Nc4ccc(OCc5cccc(C(F)(F)F)c5)cc4)c3c2)o1 | 2.34 |

Q. Recorded inhibition of `N#Cc1ccc2c(-c3ccnc(NC4CC4)n3)c(-c3ccc(F)cc3)nn2c1` , please.
A. 1.98

Q. Please report the recorded inhibition for `COc1c(C(N)=O)cc(-c2ccc(Cl)cc2)cc1-c1ccc(S(N)(=O)=O)cc1` .
A. 3.66

Q. Please report the recorded inhibition for `Cc1cc(O)cc(C)c1/C=C/c1cncc(C(=O)OC(C)(C)C)c1` .
A. 4.59

Q. Can you look up the measured inhibition of `COc1cccc(-n2ncc3c(N/N=C/c4ccc(C(=O)NCCN(C)C)cc4)ncnc32)c1` for me?
A. 39.4

Q. // query inhibition value for entry `Fc1ccc(Nc2nccc(-c3c(-c4ccc(C(F)(F)F)cc4)nn4ncccc34)n2)cc1F`
A. 2.72

Q. I am curious: what inhibition value has been reported for `COC(=O)Nc1nc2ccc(Oc3ccc(NC(=O)Nc4cc(C(F)(F)F)ccc4F)cc3)cc2s1` ?
A. 4.79

FYI, the data here is from ChEMBL document CHEMBL1961873.
